# Assayed Target: SOS1 protein (Homo sapiens, UniProt Q07889)
# Sequence (Q07889 whole entry): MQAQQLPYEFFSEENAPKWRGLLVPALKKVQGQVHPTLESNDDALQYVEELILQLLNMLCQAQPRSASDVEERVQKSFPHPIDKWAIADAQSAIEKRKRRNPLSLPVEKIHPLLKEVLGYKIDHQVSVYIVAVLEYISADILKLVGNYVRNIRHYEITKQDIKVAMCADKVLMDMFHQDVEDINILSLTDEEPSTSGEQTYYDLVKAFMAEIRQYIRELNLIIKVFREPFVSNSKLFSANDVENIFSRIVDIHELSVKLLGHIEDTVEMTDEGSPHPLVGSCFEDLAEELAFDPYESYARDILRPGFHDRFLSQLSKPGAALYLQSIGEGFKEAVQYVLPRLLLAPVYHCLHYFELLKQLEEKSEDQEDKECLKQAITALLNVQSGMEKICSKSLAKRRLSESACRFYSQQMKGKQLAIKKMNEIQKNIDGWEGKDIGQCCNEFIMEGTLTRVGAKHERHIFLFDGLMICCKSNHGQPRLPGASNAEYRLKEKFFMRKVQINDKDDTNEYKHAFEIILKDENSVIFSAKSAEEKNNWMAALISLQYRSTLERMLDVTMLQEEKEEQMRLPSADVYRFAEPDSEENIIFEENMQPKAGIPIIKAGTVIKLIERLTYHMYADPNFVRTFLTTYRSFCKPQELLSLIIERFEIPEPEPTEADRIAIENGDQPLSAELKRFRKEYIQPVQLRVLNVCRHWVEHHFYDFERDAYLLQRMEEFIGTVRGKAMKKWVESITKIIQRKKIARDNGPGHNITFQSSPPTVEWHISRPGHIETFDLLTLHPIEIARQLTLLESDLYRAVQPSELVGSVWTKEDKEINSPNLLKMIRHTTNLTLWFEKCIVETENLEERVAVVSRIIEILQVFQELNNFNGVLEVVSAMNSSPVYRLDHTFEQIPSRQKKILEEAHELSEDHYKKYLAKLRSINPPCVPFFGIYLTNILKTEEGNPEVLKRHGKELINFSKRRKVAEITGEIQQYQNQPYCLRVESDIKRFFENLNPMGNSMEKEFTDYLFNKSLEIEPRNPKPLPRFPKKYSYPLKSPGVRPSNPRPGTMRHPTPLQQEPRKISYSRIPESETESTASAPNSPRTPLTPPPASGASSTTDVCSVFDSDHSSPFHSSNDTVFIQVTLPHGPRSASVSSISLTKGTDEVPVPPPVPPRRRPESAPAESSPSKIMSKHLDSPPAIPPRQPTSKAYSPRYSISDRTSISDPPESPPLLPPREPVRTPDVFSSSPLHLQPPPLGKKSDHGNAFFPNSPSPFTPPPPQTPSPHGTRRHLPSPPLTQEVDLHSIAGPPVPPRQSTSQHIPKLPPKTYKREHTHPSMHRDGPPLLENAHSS
# Assay Name: SOS1 degradation assay (Western blot), NCI-H358 cells
# Format: cell-based
# Parameters: The degradation of SOS1 by the compounds was investigated on KRAS G12C mutant human non-small cell lung cancer cells NCI-H358; host or cells: NCI-H358 (human cancer cell lines)
# Condition Parameters: SOS1 degradation, NCI-H358 cells, 24 h, Western blot; read-out: NCI-H358 (G12C) DC50
Measured Attribute: DC50

INSERT INTO assay_data (compound, measured_attribute, result) VALUES
  ('COc1cc2nc(C)nc(N[C@H](C)c3cc(N)cc(C(F)(F)F)c3)c2cc1[C@H]1CC[C@H](C(=O)N2CCN(CCOCC3CCN(C(=O)c4ccc(Cl)c(N5CCC(=O)NC5=O)c4)CC3)CC2)CC1 [Example 33]', 'DC50', '< 50 nM'),
  ('COc1cc2nc(C)nc(N[C@H](C)c3cccc(C(F)(F)F)c3F)c2cc1[C@H]1CC[C@H](C(=O)N2CCN(CC3CCC4(CC3)CCN(C(=O)c3ccc(Cl)c(N5CCC(=O)NC5=O)c3)CC4)CC2)CC1 [Example 16]', 'DC50', '500 to 1000 nM'),
  ('CNCc1ccccc1-c1csc([C@@H](C)Nc2nc(C)nc3cc(OC)c([C@H]4CC[C@H](C(=O)N5CCN(CCC6CCC7(CC6)CCN(C(=O)c6ccc(Cl)c(N8CCC(=O)NC8=O)c6)CC7)CC5)CC4)cc23)c1 [Example 50]', 'DC50', '< 50 nM');

Per the record, COc1cc2nc(C)nc(N[C@H](C)c3cc(-c4c(Cl)cccc4CN(C)C)cs3)c2cc1[C@H]1CC[C@H](C(=O)N2CCN(CC3CCC4(CC3)CCN(C(=O)c3ccc(C5CCC(=O)NC5=O)cc3)CC4)CC2)CC1 (some centres unmarked) [Example 52] has DC50 of 100 to 500 nM

Per the record, [2H]C([2H])(OCC1CCN(C(=O)[C@H]2CC[C@H](c3cc4c(N[C@H](C)c5cc(N)cc(C(F)(F)F)c5)nc(C)nc4cc3OC)CC2)CC1)C1CCN(C(=O)c2ccc(Cl)c(N3CCC(=O)NC3=O)c2)CC1 [Example 75] has DC50 of < 50 nM
